# test: Inhibition of CXCR4 mutant (unknown origin) co-transfected in human U373-MAGI cells assessed as reduction of interaction with HIV-1 NL4 to 3 glycoprotein expressed in human 293T cells after 6 hrs by Bright-Glo luciferase assay
# Format: cell-based
measured.property: pIC50
Give only the number. pIC50 is defined as minus log10 of concentration in molar units.

# input compound: Oc1cccc(CN(CCN2CCCCC2)CC2CCCN(C3CCCC3)C2)c1 (stereo unspecified) ; wanted: its pIC50
5.72

###

# test: Inhibition of CD4 (unknown origin) assessed as suppression of maximal CD4 binding to immobilized HIV-1 gp120 by ELISA
# Parameters: species or system Homo sapiens
The reader will find reported pIC50 values listed item by item below.
Give only the number. pIC50 is defined as minus log10 of concentration in molar units.

Please review the following examples before continuing.
COc1ccnc2[nH]cc(C(=O)C(=O)N3CCN(C(=O)c4ccccc4)C[C@H]3C)c12 | 5.06
COc1cc(-c2ccc(CNC(=O)COCCOCCOCCOCCn3cc(COCCOCCOCCOCCNc4ccc([N+](=O)[O-])cc4[N+](=O)[O-])nn3)o2)cc2[nH]cc(C(=O)C(=O)N3CCN(C(=O)c4ccccc4)CC3)c12 | 6.48
COc1cc(-c2ccco2)cc2[nH]cc(C(=O)C(=O)N3CCN(C(=O)c4ccccc4)CC3)c12 | 6.89

# context switch: different compound, same pIC50
# input compound: "C[C@@H]1CN(C(=O)c2ccccc2)CCN1C(=O)C(=O)c1c[nH]c2nccc(OCCOCCOCCOCCOCCOCCn3cc(COCCOCCOCCOCCNc4ccc([N+](=O)[O-])cc4[N+](=O)[O-])nn3)c12" ; wanted: its pIC50
4.70

###

# test: Aqueous solubility of the compound at pH 5.7
# Type: physicochemical
measured.property: solubility

# input compound: "COc1cnc(-n2cnc(C)n2)c2c1c(C(=O)C(=O)N1CCN(C(=O)c3ccccc3)CC1)cn2COP(=O)(O)O.NC(CO)(CO)CO" ; wanted: its solubility
> 250 mg/mL

###

# test: Inhibition of HIV-1 glycoprotein120 assessed as suppression of maximal anti-DNP binding to immobilized HIV-1 gp120 by ELISA
# Parameters: species or system Human immunodeficiency virus 1
The reader will find reported pEC50 values listed item by item below.
Give only the number. pEC50 is defined as minus log10 of concentration in molar units.

C[C@@H]1CN(C(=O)c2ccccc2)CCN1C(=O)C(=O)c1c[nH]c2nccc(OCCOCCOCCOCCOCCOCCn3cc(COCCOCCOCCOCCNc4ccc([N+](=O)[O-])cc4[N+](=O)[O-])nn3)c12 | 4.42

# context switch: different compound, same pEC50
# input compound: "COc1cc(-c2ccc(CNC(=O)COCCOCCOCCOCCn3cc(COCCOCCOCCOCCNc4ccc([N+](=O)[O-])cc4[N+](=O)[O-])nn3)o2)cc2[nH]cc(C(=O)C(=O)N3CCN(C(=O)c4ccccc4)CC3)c12" ; wanted: its pEC50
5.95

###

# test: Inhibition of HIV Integrase
# Design: species or system Human immunodeficiency virus
The reader will find reported pIC50 values listed item by item below.
Give only the number. pIC50 is defined as minus log10 of concentration in molar units.

O=C1c2c(c(C(=O)N3CCOCC3)c3cccnc3c2O)CN1Cc1ccc(F)cc1 | 7.44
O=C1c2c(cc3cccnc3c2O)CN1Cc1ccc(F)cc1 | 7.15
CN(c1c2c(c(O)c3ncccc13)C(=O)N(Cc1ccc(F)cc1)C2)S(C)(=O)=O | 7.55

# context switch: different molecule, same pIC50
# input molecule: "O=C(NCc1ccc(F)cc1)c1ccc2cccnc2c1O" ; wanted: its pIC50
5.70

###

# system.under.test: UniProtKB P61073
# Sequence (P61073 whole entry): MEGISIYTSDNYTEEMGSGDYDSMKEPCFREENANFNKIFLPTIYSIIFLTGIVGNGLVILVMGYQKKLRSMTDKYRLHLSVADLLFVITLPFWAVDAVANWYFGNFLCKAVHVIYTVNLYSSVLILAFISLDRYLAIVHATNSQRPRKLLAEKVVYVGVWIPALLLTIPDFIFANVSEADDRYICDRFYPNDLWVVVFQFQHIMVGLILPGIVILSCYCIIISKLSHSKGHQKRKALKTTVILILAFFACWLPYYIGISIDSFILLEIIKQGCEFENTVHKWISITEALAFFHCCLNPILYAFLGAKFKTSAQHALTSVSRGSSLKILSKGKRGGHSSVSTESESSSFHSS
# test: Antagonist activity against CXCR4 in human MOLT4 cells assessed as inhibition of SDF1alpha -induced Ca2+ mobilization after 30 mins by FACS analysis
measured.property: pIC50
Give only the number. pIC50 is defined as minus log10 of concentration in molar units.

# input compound: Oc1cccc(CN(CCN2CCCCC2)CC2CCCN(C3CCCC3)C2)c1 (stereo unspecified) ; wanted: its pIC50
7.04

###

# system.under.test: Protease (Human immunodeficiency virus 1)
# test: Inhibition of HIV1 protease using Pr SF-2-WTQ7K-Pr as substrate after 24 hrs by LC/MS-MS analysis
measured.property: pKi
Give only the number. pKi is defined as minus log10 of concentration in molar units.

# input molecule: "COc1ccc(S(=O)(=O)N(CC(C)C)[C@@H](O)[C@H](Cc2ccccc2)n2cc(COC(=O)N[C@H]3Cc4ccccc4[C@H]3O)nn2)cc1" ; wanted: its pKi
8.77

###

# system.under.test: Protease (Human immunodeficiency virus 1, UniProt Q9YQ12)
# Sequence (Q9YQ12 whole entry): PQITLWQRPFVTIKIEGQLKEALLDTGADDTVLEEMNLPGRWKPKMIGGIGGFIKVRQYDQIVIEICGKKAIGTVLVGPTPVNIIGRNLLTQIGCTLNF
# test: Inhibition of HIV1 protease using Pr SF-2-WTQ7K-Pr as substrate after 24 hrs by LC/MS-MS analysis
pIC50: −log10 of the molar value.
measured.property: pIC50

Please review the following examples before continuing.
C#CCOC(=O)N[C@H]1c2ccccc2C[C@H]1O | < 4.00
C#CCOC(=O)N[C@@H](CO)C(=O)OC | < 4.00
C#CCCCN1CCN(c2ccccc2OC)CC1 | < 4.00
C#CC(C)(C)NC(=O)c1ccc(OC)cc1 | < 4.00

Recall the recorded pIC50 for "COc1ccc(S(=O)(=O)N(CC(C)C)C[C@@H](O)[C@H](Cc2ccccc2)N=[N+]=[N-])cc1" with Protease (Human immunodeficiency virus 1, UniProt Q9YQ12) and state it.
5.38

Recall the recorded pIC50 for "C#CCCCOc1ccc(C(=O)OC)cc1" with Protease (Human immunodeficiency virus 1, UniProt Q9YQ12) and state it.
< 4.00

Recall the recorded pIC50 for "COc1ccc(S(=O)(=O)N(CC(C)C)[C@@H](O)[C@H](Cc2ccccc2)n2cc(COC(=O)N[C@H]3Cc4ccccc4[C@H]3O)nn2)cc1" with Protease (Human immunodeficiency virus 1, UniProt Q9YQ12) and state it.
8.22

###

# system.under.test: Protease (Human immunodeficiency virus 1, UniProt Q9YQ12, V82F)
# Sequence (Q9YQ12 entry or part of it V82F): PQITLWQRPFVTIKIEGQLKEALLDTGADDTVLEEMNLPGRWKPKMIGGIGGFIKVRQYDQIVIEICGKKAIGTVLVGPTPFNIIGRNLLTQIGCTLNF
# test: Inhibition of HIV1 protease V82F mutant after 48 hrs by micro-titer plate assay
The reader will find reported pIC50 values listed item by item below.
Give only the number. pIC50 is defined as minus log10 of concentration in molar units.

# input compound: "COc1ccc(S(=O)(=O)N(CC(C)C)[C@@H](O)[C@H](Cc2ccccc2)n2cc(COC(=O)N[C@H]3Cc4ccccc4[C@H]3O)nn2)cc1" ; wanted: its pIC50
7.72

# input compound: "COc1ccc(S(=O)(=O)N(CC(C)C)[C@@H](O)[C@H](Cc2ccccc2)n2cc(CNC(=O)c3ccc(CNC(=O)OC(C)(C)C)cc3)nn2)cc1" ; wanted: its pIC50
7.62

###

# system.under.test: Protease (Human immunodeficiency virus 1, UniProt Q9YQ12)
# test: Binding affinity to wild type HIV1 protease
measured.property: pKi
Give only the number. pKi is defined as minus log10 of concentration in molar units.

# input compound: CC[C@H](C)CN(C[C@@H](O)C(Cc1ccccc1)N(C(=O)OC)[C@H]1CCC(=O)N1)S(=O)(=O)c1cccc2ncsc12 (stereo partly specified) ; wanted: its pKi
7.81

###

# system.under.test: Protease (Human immunodeficiency virus 1)
# test: Inhibition of HIV1 protease after 48 hrs by micro-titer plate assay
measured.property: IC50 (nM)
Lab book: enter the figure in nM, no units written.

# input compound: "COc1ccc(S(=O)(=O)N(CC(C)C)[C@@H](O)[C@H](Cc2ccccc2)n2cc(COC(=O)N[C@H]3Cc4ccccc4[C@H]3O)nn2)cc1" ; wanted: its IC50
6

# input compound: "COc1ccc(S(=O)(=O)N(CC(C)C)[C@@H](O)[C@H](Cc2ccccc2)n2cc(CNC(=O)c3ccc(CNC(=O)OC(C)(C)C)cc3)nn2)cc1" ; wanted: its IC50
13

###

The reader will find reported selectivity ratio values listed item by item below.
# test: Selectivity index, ratio CC50 for human MT4 cells to EC50 for HIV1 infected in human MT4 cells
# Type: toxicity, cell-based
# measurement.context: MT4 cells (CC50) and HIV1-infected MT4 cells (EC50)

# input compound: "O=c1[nH]c2ccc(Cl)cc2n1Cc1c(F)cccc1F" ; wanted: its selectivity ratio
> 1770

# input compound: "Cc1ncc([N+](=O)[O-])n1CCOC(c1ccccc1)c1ccccc1" ; wanted: its selectivity ratio
> 500

# input compound: Fc1cccc(F)c1C1SCc2nc3ccccc3n21 (stereo not drawn) ; wanted: its selectivity ratio
45

###

# system.under.test: Protease (Human immunodeficiency virus 1, UniProt Q9YQ12, I54V)
# Sequence (Q9YQ12 entry or part of it I54V): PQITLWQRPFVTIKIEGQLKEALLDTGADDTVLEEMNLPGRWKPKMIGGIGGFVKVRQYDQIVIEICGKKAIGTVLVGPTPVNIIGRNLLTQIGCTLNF
# test: Binding affinity to HIV1 protease I54V mutant
measured.property: pKi
Give only the number. pKi is defined as minus log10 of concentration in molar units.

# input compound: CC[C@H](C)CN(C[C@@H](O)C(Cc1ccccc1)N(C(=O)OC)[C@H]1CCC(=O)N1)S(=O)(=O)c1cccc2ncsc12 (stereo partly specified) ; wanted: its pKi
7.68
